All figures here come from ChEMBL document CHEMBL6074634.

Overview of recorded pIC50 for various compounds
System: SARS-CoV-2
Experiment: Antiviral activity against SARS CoV-2 infected in african green monkey Vero E6 cells assessed as inhibition of viral growth preincubated with cells for 1 hr followed by viral addition for 1 hr with subsequent compound washout and measured after 24 hrs of compound replacement by qRT-PCR analysis
Type: functional, organism-based
Conditions: Severe acute respiratory syndrome coronavirus 2, Vero C1008
pIC50: −log10 of the molar value.

COc1cc2c3cc1Oc1c(OC)c(OC)cc4c1[C@H](Cc1ccc(cc1)Oc1cc(cc(N)c1O)C[C@H]3N(C)CC2)N(C)CC4; < 5.30
COc1cc2c3cc1Oc1c(OC)c(OC)cc4c1[C@H](Cc1ccc(cc1)Oc1cc(ccc1NCc1ccccc1)C[C@H]3N(C)CC2)N(C)CC4; < 5.30
COc1cc2c3cc1Oc1c(OC)c(OC)cc4c1[C@H](Cc1ccc(cc1)Oc1cc(ccc1N)C[C@H]3N(C)CC2)N(C)CC4; < 5.30

Please look at the following compound next.
Item under review: CNc1ccc2cc1Oc1ccc(cc1)C[C@H]1c3c(cc(OC)c(OC)c3Oc3cc4c(cc3OC)CCN(C)[C@@H]4C2)CCN1C . Reported pIC50? < 5.30
